experiment: background-corrected fluorescence of 3'-dye-labeled ssDNA relative to brightest sequence (3'-GCGCG) (fraction); higher = brighter dye fluorescence (less quenching); conditions: dye: Cy5 (3' terminal)

# CHAIN SEQUENCE, background-corrected fluorescence
data = [
    ("TTTTTGCATCATGAGCATGCTTTTTTTTTTTTTTTTGCTA [ATCGT]", 0.399),
    ("TTTTTTGCTGAGCAGCATCATTTTTTTTTTTTTTTACTTG [GTTCA]", 0.4),
    ("TTTTTTGCTCATGAGCATCATTTTTTTTTTTTTTTAGCTG [GTCGA]", 0.424),
    ("TTTTTTCAGCATGCGCATCATTTTTTTTTTTTTTTGTATG", 0.419),
    ("TTTTTTGATCAGCATCATGCTTTTTTTTTTTTTTTCGTGA [AGTGC]", 0.531),
    ("TTTTTTGATCATGAGCATCATTTTTTTTTTTTTTTCGCTG [GTCGC]", 0.423),
    ("TTTTTTGCGCAGCAGCAGCATTTTTTTTTTTTTTTATTTT", 0.381),
    ("TTTTTTGAGCATGCGCAGCATTTTTTTTTTTTTTTCTATT [TTATC]", 0.402),
    ("TTTTTGCATCAGCATCAGCATTTTTTTTTTTTTTTTGTGT", 0.497),
    ("TTTTTGCAGCATCAGCATGCTTTTTTTTTTTTTTTTTGTA [ATGTT]", 0.487),
    ("TTTTTTGCTCATGATGCTGCTTTTTTTTTTTTTTTAGCAA [AACGA]", 0.427),
    ("TTTTTGCATGAGCAGCAGCATTTTTTTTTTTTTTTTCTTT", 0.353),
    ("TTTTTTGCGCATGCTCAGCATTTTTTTTTTTTTTTATAGT [TGATA]", 0.482),
    ("TTTTTTCATGATGCTGCTGCTTTTTTTTTTTTTTTGCAAA [AAACG]", 0.497),
    ("TTTTTTGATCATGATGAGCATTTTTTTTTTTTTTTCGCCT [TCCGC]", 0.369),
    ("TTTTTTGAGCAGCATGCTGATTTTTTTTTTTTTTTCTTAC [CATTC]", 0.3),
    ("TTTTTTGCGCATGATCATGCTTTTTTTTTTTTTTTATCGA [AGCTA]", 0.517),
    ("TTTTTTGAGCATGCTGCTGATTTTTTTTTTTTTTTCTAAC [CAATC]", 0.316),
    ("TTTTTGCATGATGCGCATGATTTTTTTTTTTTTTTTCATC [CTACT]", 0.305),
    ("TTTTTTCATGAGCATCATCATTTTTTTTTTTTTTTGCTGG [GGTCG]", 0.47),
    ("TTTTTTGAGCATGAGCATCATTTTTTTTTTTTTTTCTCTG [GTCTC]", 0.352),
]

====

Listed below: background-corrected fluorescence values for each entry.
test: background-corrected fluorescence of 3'-dye-labeled ssDNA relative to brightest sequence (3'-GCGCG) (fraction); higher = brighter dye fluorescence (less quenching); conditions: dye: Cy5 (3' terminal)

# CHAIN SEQUENCE, background-corrected fluorescence
data = [
    ("TTTTTTGCGCATCATCATGCTTTTTTTTTTTTTTTATGGA [AGGTA]", 0.599),
    ("TTTTTTGCTGATGCTGATGATTTTTTTTTTTTTTTACACC [CCACA]", 0.275),
    ("TTTTTTGAGCATGATCATGATTTTTTTTTTTTTTTCTCGC [CGCTC]", 0.412),
    ("TTTTTTCATCAGCAGCAGCATTTTTTTTTTTTTTTGGTTT", 0.402),
    ("TTTTTTCATGCTGATGAGCATTTTTTTTTTTTTTTGACCT [TCCAG]", 0.34),
    ("TTTTTTGCTGAGCATGATCATTTTTTTTTTTTTTTACTCG [GCTCA]", 0.418),
    ("TTTTTTGCTCATCATGCTCATTTTTTTTTTTTTTTAGGAG [GAGGA]", 0.507),
    ("TTTTTTGATGATGCTGAGCATTTTTTTTTTTTTTTCCACT [TCACC]", 0.322),
    ("TTTTTTGAGCATGATGCTCATTTTTTTTTTTTTTTCTCAG [GACTC]", 0.389),
    ("TTTTTTGCTGATGATGCGCATTTTTTTTTTTTTTTACCAT", 0.364),
    ("TTTTTTGATGATGCTGATGATTTTTTTTTTTTTTTCCACC", 0.275),
    ("TTTTTTCATGCGCAGCATGCTTTTTTTTTTTTTTTGATTA [ATTAG]", 0.424),
    ("TTTTTTCATGATCATGCTCATTTTTTTTTTTTTTTGCGAG [GAGCG]", 0.51),
    ("TTTTTTGATGATGATGCTGCTTTTTTTTTTTTTTTCCCAA [AACCC]", 0.386),
    ("TTTTTTGCGCATGAGCAGCATTTTTTTTTTTTTTTATCTT [TTCTA]", 0.35),
    ("TTTTTGCATGCGCATCAGCATTTTTTTTTTTTTTTTATGT [TGTAT]", 0.489),
    ("TTTTTTGAGCATGCTGATGATTTTTTTTTTTTTTTCTACC [CCATC]", 0.284),
    ("TTTTTGCATCATGATCATCATTTTTTTTTTTTTTTTGCGG [GGCGT]", 0.543),
    ("TTTTTTGATCATGCGCATGCTTTTTTTTTTTTTTTCGATA [ATAGC]", 0.427),
    ("TTTTTTCATCATGCTGATGATTTTTTTTTTTTTTTGGACC [CCAGG]", 0.317),
    ("TTTTTTGATGCTGCTGATCATTTTTTTTTTTTTTTCAACG [GCAAC]", 0.408),
]
